Values compiled from paper PMC3417418.

experimental.target: T1, CXCR3 (Homo sapiens, UniProt P49682)
T1 chain: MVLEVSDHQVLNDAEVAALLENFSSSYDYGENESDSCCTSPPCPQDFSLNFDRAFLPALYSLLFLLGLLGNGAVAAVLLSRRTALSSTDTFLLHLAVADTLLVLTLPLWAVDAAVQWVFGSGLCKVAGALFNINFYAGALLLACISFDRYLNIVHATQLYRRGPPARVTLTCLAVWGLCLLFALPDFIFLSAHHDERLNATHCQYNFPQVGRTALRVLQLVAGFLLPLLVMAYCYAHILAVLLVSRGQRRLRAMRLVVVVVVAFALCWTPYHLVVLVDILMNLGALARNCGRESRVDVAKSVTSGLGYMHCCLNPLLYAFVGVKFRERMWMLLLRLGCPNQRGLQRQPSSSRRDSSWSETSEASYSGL
procedure.details: homologous competition 125I radioligand binding on L1.2 cells
metric.name: Kd (nM)
Unit nM implied. Number only.

Sample CXCL11 (protein) FPMFKRGRCLCIGPGVKAVKVADIEKASIMYPSNNCDKIEVIITLKENKGQRCLNPKSKQARLIIKKVERKNF ; Kd observed: 1.4
